Molecular target: Ubiquitin carboxyl-terminal hydrolase 17-like protein 5 (Homo sapiens) (UniProt A8MUK1)
Sequence (A8MUK1 whole entry, looked up): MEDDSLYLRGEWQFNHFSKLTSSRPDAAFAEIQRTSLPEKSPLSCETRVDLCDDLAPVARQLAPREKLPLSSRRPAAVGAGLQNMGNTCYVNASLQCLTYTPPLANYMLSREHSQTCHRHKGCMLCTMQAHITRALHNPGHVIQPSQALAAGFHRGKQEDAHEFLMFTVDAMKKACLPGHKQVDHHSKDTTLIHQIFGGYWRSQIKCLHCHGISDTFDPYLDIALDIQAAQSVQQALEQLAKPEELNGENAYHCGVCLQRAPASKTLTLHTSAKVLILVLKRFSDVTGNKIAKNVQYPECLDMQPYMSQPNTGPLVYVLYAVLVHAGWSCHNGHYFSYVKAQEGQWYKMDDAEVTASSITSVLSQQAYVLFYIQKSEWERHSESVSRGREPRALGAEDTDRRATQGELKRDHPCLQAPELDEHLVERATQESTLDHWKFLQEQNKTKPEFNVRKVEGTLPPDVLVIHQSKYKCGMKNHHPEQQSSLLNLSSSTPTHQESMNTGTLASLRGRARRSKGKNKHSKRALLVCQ
Assay: ubiquitin-specific protease 17 DUB inhibitors, concentration-effect assay, cell-free, verification of initial screening actives (AID 1645864)
Conditions: purified USP17, ubiquitin-rhodamine cleavage fluorescence, 3 h
The source made the active and inactive calls.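 Rule for the calls: active = maximal inhibition of USP17 at or above 30% in the confirmation dose-response, a value not among the printed readouts; inactive = the rest.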
Give your call using only these classes: active, inactive

# MOL SMILES, GROUP LABEL
measured = [
    ("O=C(NCc1ccco1)c1ccc2c(c1)N(Cc1cccc(F)c1)C(=O)c1ccccc1S2", "inactive"),
    ("Cn1c2ccccc2c(=O)c2c(=O)n(Cc3ccccc3)c(-c3ccco3)nc21", "active"),
    ("Cc1ccc(-n2nnc(C(=O)NC3CCCCC3)c2N)cc1", "active"),
    ("CCCCN(C)C(=O)c1cc2c(=O)n3cccc(C)c3nc2n1Cc1ccccc1", "active"),
    ("Cc1cccc(NC(=O)Cn2c(-c3cnccn3)nc(C)c(C)c2=O)c1C", "inactive"),
    ("O=C(Cn1c(=O)n(Cc2ccc(F)cc2)c(=O)c2ncccc21)Nc1ccccc1", "active"),
    ("Cc1cc(N2CCOCC2)nc2ccc(NC(=O)CCC(=O)Nc3ccc(F)cc3)cc12", "active"),
    ("Cn1c(-c2nnc(SCC(=O)Nc3ccccc3F)o2)cc2ccccc21", "active"),
]

Recorded test call requested for `COc1ccc(-n2c(=O)c(CCC(=O)O)nc3ccccc32)cc1`
inactive

In this assay, the call recorded for `N#Cc1ccccc1COC(=O)c1ccc2ccccc2n1` was what?
inactive

* * *

Molecular target: UniProt:A8MUK1
Assay: ubiquitin-specific protease 17 DUB inhibitors, concentration-effect assay, cell-free, verification of initial screening actives (AID 1645864)
Settings: purified USP17, ubiquitin-rhodamine cleavage fluorescence, 3 h
Activity calls are given as the source filed them.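 How the source made its calls: active means maximal inhibition of USP17 at or above 30% in the confirmation dose-response, a value not among the printed readouts; inactive means the rest.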
# output must be one of active, inactive

# COMPOUND, GROUP LABEL
rows = [
    ("Cc1ccc2c(c1)N=C(c1ccc([N+](=O)[O-])cc1)CO2", "inactive"),
    ("O=c1c2c(ccn1Cc1cc(F)ccc1F)ccn2Cc1cccnc1", "inactive"),
    ("O=C(/C=C/c1cnc2ccccc2c1)NCc1ccccc1", "active"),
    ("Cc1ccc(NC(=O)c2cnc(N3CCOCC3)nc2)cc1F", "active"),
    ("CCC(C)c1ccc(-c2csc(Cn3c(CN4CCN(C)CC4)nc4ccccc4c3=O)n2)cc1 (stereo not given)", "active"),
    ("O=C(c1ccc(COc2cccc3ccccc23)o1)N1CCC(Cc2ccccc2)CC1", "inactive"),
    ("COc1cccc2c1C(=O)c1ccc3c(c1C2=O)C(=O)CC(C)(O)C3 (stereo not given)", "active"),
    ("COc1cccc(CC(=O)Nc2cc(F)c3nc(N4CCOCC4)ccc3c2)c1", "inactive"),
]

Give the logged outcome of this assay for the following compound: `Cc1ccc(C)c(-n2c(N)c(C(=O)NCCc3ccccc3)c3nc4ccccc4nc32)c1`
inactive

GET /call?item= `N#Cc1ccccc1Cn1c(=O)n(CCCCC(=O)NCc2ccco2)c(=O)c2ccccc21` returns the recorded outcome of this test.
active

* * *

// UniProt A8MUK1 IC50 records

Look over these answered cases.
# COMPOUND, IC50
records = [
    ("CC(C)Cc1nc2sc3c(NCc4ccccc4)ncnc3c2c2c1COC(C)(C)C2", "6.77 µM"),
    ("O=c1c(S(=O)(=O)c2cc(F)cc(F)c2)c[nH]c2cc(Cl)ccc12", "23.8 µM"),
    ("O=C(Nc1ccccc1)C1CCCN(C(=O)c2cc3ccccc3[nH]2)C1 (stereo not given)", "38.7 µM"),
    ("CCc1ccc2[nH]c3c(c(=O)c2c1)CN(CC(=O)NCc1ccc2c(c1)OCO2)CC3", "28.1 µM"),
]

Given O=C(c1ccco1)N1CCC2(CC1)CC1(CO2)Nc2ccccc2-n2cccc21 (stereo not given) , report its IC50 on UniProt A8MUK1.
20.6 µM
